Property: melting point; scope: individual molecules
Where a name gives a salt, the structure may show the parent alone.

Look over these answered cases.
{"MOLECULE": "CC(c1ccc(CCn2cnc3cc(-c4ccc(Cl)cc4)sc3c2=O)cc1)N1CCCCC1 (stereo not drawn)", "melting point": "175 to 179 °C"}
{"MOLECULE": "CN(CC(N)=O)Cc1ccc(CCn2cnc3cc(-c4ccc(Cl)cc4)sc3c2=O)cc1", "melting point": "207 to 212 °C"}
{"MOLECULE": "O=C1CNCCN1Cc1ccc(CCn2cnc3cc(-c4ccc(Cl)cc4)sc3c2=O)cc1 (as salt: hydrochloride) [Example 38, dihydrochloride]", "melting point": "271 to 278 °C"}
{"MOLECULE": "O=C1C[C@@H](O)CN1Cc1ccc(CCn2cnc3cc(-c4ccc(Cl)cc4)sc3c2=O)cc1", "melting point": "243 to 246 °C"}

Lab note: `CC(=O)N1CCN(Cc2ccc(CCn3cnc4cc(-c5ccc(Cl)cc5)sc4c3=O)cc2)C(=O)C1` gave melting point of 204 to 207 °C

====

# MEASUREMENT_TARGET: SLC-1 expression CHO cell membrane fraction (MCH receptor) (Homo sapiens)
# Construct: expressed in transfected cells; host or cells: CHO cells (human SLC-1 clone 57 / rat SLC-1 clone 44), membrane fraction
# Sequence (Q99705 whole entry): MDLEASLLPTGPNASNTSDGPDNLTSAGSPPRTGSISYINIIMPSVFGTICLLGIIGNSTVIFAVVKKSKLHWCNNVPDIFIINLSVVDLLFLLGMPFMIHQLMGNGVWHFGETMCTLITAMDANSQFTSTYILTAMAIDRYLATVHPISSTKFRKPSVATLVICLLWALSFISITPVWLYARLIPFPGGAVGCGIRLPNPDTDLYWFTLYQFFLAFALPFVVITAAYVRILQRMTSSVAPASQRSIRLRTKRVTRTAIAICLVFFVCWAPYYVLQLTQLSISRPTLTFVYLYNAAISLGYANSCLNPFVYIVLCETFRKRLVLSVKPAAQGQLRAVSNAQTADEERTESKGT
# ASSAY_REMARKS: Antagonistic activity of test compound using GTPγS binding assay
# Assay type: biochemical, human/rat
# MEASUREMENT_SETUP: [35S]-GTPγS binding stimulated by MCH, 25° C., 1 hr, read-out: inhibitory activity (IC50: nM)
ATTRIBUTE_MEASURED: IC50 (nM)
Please reply with the bare figure in nM and do not write the unit itself.

Look over these answered cases.
{"COMPOUND": "CC(=O)N(C)N(C)c1ccc(CCn2cnc3cc(-c4ccc(Cl)cc4)sc3c2=O)cc1 [Example 22]", "IC50, nM": 10}
{"COMPOUND": "CC(=O)N(C)Cc1ccc(CCn2cnc3cc(-c4ccc(Cl)cc4)sc3c2=O)cc1 [Example 6]", "IC50, nM": 4.8}
{"COMPOUND": "O=c1c2sc(-c3ccc(Cl)cc3)cc2ncn1CCc1ccc(CN2CC[C@H](F)C2)cc1 [Example 18]", "IC50, nM": 1.2}
{"COMPOUND": "CC(c1ccc(CCn2cnc3cc(-c4ccc(Cl)cc4)sc3c2=O)cc1)N1CCCCC1 (centres unmarked) [Example 2]", "IC50, nM": 0.4}

# input for lookup
Lab note: O=c1c2sc(-c3ccc(Cl)cc3)cc2ncn1CCc1ccc(CN2CCCC2)cc1 [Example 1] gave IC50 of 0.3

====

Structures can show the parent of a compound that is named as a salt.
Property: melting point; scope: individual compounds

Look over these answered cases.
{"COMPOUND": "CN(Cc1ccc(CCn2cnc3cc(-c4ccc(Cl)cc4)sc3c2=O)cc1)C(=O)C1CC1", "melting point": "178 °C"}
{"COMPOUND": "CN(Cc1ccc(CCn2cnc3cc(-c4ccc(Cl)cc4)sc3c2=O)cc1)S(C)(=O)=O", "melting point": "230 to 232 °C"}
{"COMPOUND": "CC(=O)NC1CCN(Cc2ccc(CCn3cnc4cc(-c5ccc(Cl)cc5)sc4c3=O)cc2)C1 (stereo not shown)", "melting point": "196 to 198 °C"}
{"COMPOUND": "CNCC(=O)N(C)Cc1ccc(CCn2cnc3cc(-c4ccc(Cl)cc4)sc3c2=O)cc1", "melting point": "166 to 169 °C"}
{"COMPOUND": "O=C1CCCCN1Cc1ccc(CCn2cnc3cc(-c4ccc(F)cc4)sc3c2=O)cc1", "melting point": "216 to 217 °C"}

Lab note: CN(C(=O)C(F)(F)F)C1Cc2ccc(C(=O)Cn3cnc4cc(-c5ccc(Cl)cc5)sc4c3=O)cc2C1 (stereo not shown) gave melting point of 245 to 248 °C

Lab note: CN(CC(=O)O)Cc1ccc(CCn2cnc3cc(-c4ccc(Cl)cc4)sc3c2=O)cc1 (as salt: hydrochloride) [Example 30, dihydrochloride] gave melting point of 252 to 253 °C

====

Property: melting point; scope: individual molecules
Counter-ions that a name gives are not always drawn.

Look over these answered cases.
{"MOLECULE": "CN(C)C(=O)N(C)Cc1ccc(CCn2cnc3cc(-c4ccc(Cl)cc4)sc3c2=O)cc1", "melting point": "160 to 165 °C"}
{"MOLECULE": "O=C1CN(Cc2ccc(CCn3cnc4cc(-c5ccc(Cl)cc5)sc4c3=O)cc2)CCN1", "melting point": "232 to 234 °C"}
{"MOLECULE": "CN(Cc1ccc(C(=O)Cn2cnc3cc(-c4ccc(Cl)cc4)sc3c2=O)cc1)C(=O)C(F)(F)F", "melting point": "235 to 238 °C"}

# input for lookup
Lab note: CNCc1ccc(CCn2cnc3cc(-c4ccc(Cl)cc4)sc3c2=O)cc1 (as salt: hydrochloride) [Example 4, dihydrochloride] gave melting point of > 300 °C
